Test system: human FUBP1 mRNA
Test: FUBP1 mRNA in non-infected primary human hepatocytes PXB-PHH (Example 2.2)
Type: cell-based
Details: non-infected PXB-PHH cells, 25 μM, normalized to GUSB
Reported Property: Rel. mRNA level PXB-PHH at 25 μM

Use these answered entries as a reference point.
Query string: API: value(readout=Rel. mRNA level PXB-PHH at 25 μM, system=human FUBP1 mRNA) for record CTTatGctttttatgGT (CTTATGCTTTTTATGGT; antisense; chemistry not fully specified) [CMP ID NO 325_1, FUBP1 alternating flank LNA gapmer]
Result string: 37 % of control

Query string: API: value(readout=Rel. mRNA level PXB-PHH at 25 μM, system=human FUBP1 mRNA) for record GcttTttatggtTtCAC (GCTTTTTATGGTTTCAC; antisense; chemistry not fully specified) [CMP ID NO 327_1, FUBP1 alternating flank LNA gapmer]
Result string: 33 % of control

---
Query string: API: value(readout=Rel. mRNA level PXB-PHH at 25 μM, system=human FUBP1 mRNA) for record CTtAtgctttttatgGTT (CTTATGCTTTTTATGGTT; antisense; chemistry not fully specified) [CMP ID NO 326_2, FUBP1 alternating flank LNA gapmer]
Result string: 21 % of control

###

# key: entry, value: IC50
Tested on: RTEL1 mRNA
Test: RTEL1 mRNA dose response in human MDA-MB-231 cell line (Example 1.2)
Format: cell-based
Conditions: RTEL1 mRNA, MDA-MB-231 cells, 3 days, n=2
Oligonucleotides are written 5' to 3', each unit as a sugar letter and its base; * is a phosphorothioate linkage, no mark a phosphodiester; rarer units and linkages stand in square brackets, end groups in braces. Plain capitals give the bases only. l = locked nucleic acid (LNA); [5mC] = 5-methylcytosine; d = 2'-deoxy (DNA)
Enter your answer as a number in nM; do not include the unit.

Query string: Form field: reported IC50 of CTttattataactTgaAtCTC (l[5mC]*lT*dT*dT*dA*dT*dT*dA*dT*dA*dA*dC*dT*lT*dG*dA*lA*dT*l[5mC]*lT*l[5mC]) [CMP ID NO 246_1, RTEL1 alternating flank LNA gapmer]
Result string: 400

Query string: Form field: reported IC50 of AAttttacatactctGGTC (lA*lA*dT*dT*dT*dT*dA*dC*dA*dT*dA*dC*dT*dC*dT*lG*lG*lT*l[5mC]) [CMP ID NO 244_1]
Result string: 300

Moving on to the next substance.
Query string: Form field: reported IC50 of TTacatactctggtCAAA (lT*lT*dA*dC*dA*dT*dA*dC*dT*dC*dT*dG*dG*dT*l[5mC]*lA*lA*lA) [CMP ID NO 245_1]
Result string: 900
